- EXPERIMENT_NOTES: NCI Yeast Anticancer Drug Screen. Data for the bub3 strain (AID 167)
- STUDY_CONDITIONS: S. cerevisiae bub3 mutant strain, at 5.0 µM (retest, dose inferred, filed as 0.5)
Compounds without any hit were thinned out: in the full panel of roughly 79,000, 15% have a hit. Active and inactive are the calls of the source. No stated cut-off is given here; in the data, active means growth inhibition above about 70%; inactive means the rest.
Please state which outcome applies, choosing from 1 (active), -1 (inactive)

// known answers, use as guide
CCOP(=O)(Oc1ccc([N+](=O)[O-])cc1)c1ccccc1C(C)C (stereo not drawn) :: -1
CC[PH+](CC)CC.CC[PH+](CC)CC.[Au] :: -1
Oc1ccc(Cl)cc1Cc1ccccc1 :: -1
[C](#Cc1ccccc1)[Hg][C]#Cc1ccccc1 :: -1
Cc1ccc([C@H]2N[C@@H]2c2ccccn2)cc1 :: -1
O=C(CI)c1ccc[nH]1 :: 1
Cc1cc[n+](C2=C(Nc3ccc(Cl)cc3Cl)C(=O)c3ccccc3C2=O)cc1 :: -1
O=C(O)CCCc1cc(I)c(N(CCCl)CCCl)c(I)c1 :: -1
[I][Hg][CH2]C1COCC([CH2][Hg][I])O1 (stereo not drawn) :: -1
CC(=O)C(CN(C(C)C)C(C)C)C(c1ccccc1)c1c(O)c2ccccc2oc1=O (stereo not drawn) :: -1

Request: Called result for `CC1(C)CCC(C)(C)c2cc(Cl)c(O)cc21`
Response: -1

Request: Called result for `O=C1NC(=S)NC(=O)C1=Cc1ccc([N+](=O)[O-])o1`
Response: -1

Request: Called result for `Nc1nc(N)c(-c2ccc(Cl)c(Cl)c2)c(CCc2ccc(CNC(=O)Nc3ccc(S(=O)(=O)F)cc3)cc2)n1`
Response: -1

Request: Called result for `C[n+]1c(/C=C/c2ccc(O)c3ncccc23)[se]c2ccccc21`
Response: -1

Request: Called result for `O=P(O/C(=C\c1ccccc1)c1ccccc1)(c1ccccc1)c1ccccc1`
Response: -1

Request: Called result for COc1c(O)c2c(c3cc(C(=O)N4CCc5c4c(O)c(OC)c4[nH]c(C(=O)N6CC7CC78C6=CC(=O)c6[nH]cc(C)c68)cc54)[nH]c13)CCN2C(N)=O (stereo not drawn)
Response: 1

Request: Called result for `CN(C)CCSC1=Nc2ccc(Cl)cc2C(c2ccccc2Cl)=NC1`
Response: -1

Request: Called result for CC1(C)OCC(COC(=O)C=[N+]=[N-])O1 (stereo not drawn)
Response: -1

Request: Called result for O=C(c1ccccc1)C1CCCN(CCc2ccccc2)C1 (stereo not drawn)
Response: -1

Request: Called result for Clc1ccc2c(NCCCCN3OC3c3ccccc3)ccnc2c1 (stereo not drawn)
Response: -1

Request: Called result for O=P1(Oc2ccccc2)C(c2ccccc2)C(c2ccccc2)=NN1c1ccccc1 (stereo not drawn)
Response: -1

Request: Called result for `Oc1cc(Cl)c(Cl)cc1Cl`
Response: -1

Request: Called result for `Cc1ccc2c[c]1[Hg][CH2]COS2(=O)=O`
Response: -1

====

- EXPERIMENT_NOTES: NCI Yeast Anticancer Drug Screen. Data for the rad18 strain (AID 177)
- STUDY_CONDITIONS: S. cerevisiae rad18 mutant growth inhibition; at 11.0 µM
The panel holds about 79,000 compounds, 15% with a hit somewhere; the sample as a whole holds those more often. Activity calls are given as the source filed them. Cut-off read from the data, not from the text of the source: active = growth inhibition above about 70%; inactive = the rest.
Please state which outcome applies, choosing from active, inactive

COc1ccc(/C=C(/C)[N+](=O)[O-])cc1 :: inactive

Request: Called result for CCC1(O)C(=O)OCc2c1cc1n(c2=O)Cc2cc3ccccc3nc2-1 (centres undefined)
Response: inactive

Request: Called result for `CSc1ccccc1[As](C)C`
Response: active

Request: Called result for `CO[C@H](/C(C)=C/C=C/C(C)=C/c1coc(C)n1)[C@H](C)[C@H]1C[C@@H](O)[C@@]2(C)O[C@H]2/C=C/[C@@H](C)[C@@H]2C[C@@H](CC(=O)O2)C[C@H]2O[C@@H]2C(=O)O1`
Response: inactive

Request: Called result for `O=C(/C=C(\c1ccccc1)N1CC1)c1ccccc1`
Response: inactive
